target: Tyk2 (Homo sapiens (Human), UniProt P29597); test: pSTAT4 Cell Assay (MSD, NK92 cells); format: cell-based; conditions: MSD
Sequence (P29597 whole entry): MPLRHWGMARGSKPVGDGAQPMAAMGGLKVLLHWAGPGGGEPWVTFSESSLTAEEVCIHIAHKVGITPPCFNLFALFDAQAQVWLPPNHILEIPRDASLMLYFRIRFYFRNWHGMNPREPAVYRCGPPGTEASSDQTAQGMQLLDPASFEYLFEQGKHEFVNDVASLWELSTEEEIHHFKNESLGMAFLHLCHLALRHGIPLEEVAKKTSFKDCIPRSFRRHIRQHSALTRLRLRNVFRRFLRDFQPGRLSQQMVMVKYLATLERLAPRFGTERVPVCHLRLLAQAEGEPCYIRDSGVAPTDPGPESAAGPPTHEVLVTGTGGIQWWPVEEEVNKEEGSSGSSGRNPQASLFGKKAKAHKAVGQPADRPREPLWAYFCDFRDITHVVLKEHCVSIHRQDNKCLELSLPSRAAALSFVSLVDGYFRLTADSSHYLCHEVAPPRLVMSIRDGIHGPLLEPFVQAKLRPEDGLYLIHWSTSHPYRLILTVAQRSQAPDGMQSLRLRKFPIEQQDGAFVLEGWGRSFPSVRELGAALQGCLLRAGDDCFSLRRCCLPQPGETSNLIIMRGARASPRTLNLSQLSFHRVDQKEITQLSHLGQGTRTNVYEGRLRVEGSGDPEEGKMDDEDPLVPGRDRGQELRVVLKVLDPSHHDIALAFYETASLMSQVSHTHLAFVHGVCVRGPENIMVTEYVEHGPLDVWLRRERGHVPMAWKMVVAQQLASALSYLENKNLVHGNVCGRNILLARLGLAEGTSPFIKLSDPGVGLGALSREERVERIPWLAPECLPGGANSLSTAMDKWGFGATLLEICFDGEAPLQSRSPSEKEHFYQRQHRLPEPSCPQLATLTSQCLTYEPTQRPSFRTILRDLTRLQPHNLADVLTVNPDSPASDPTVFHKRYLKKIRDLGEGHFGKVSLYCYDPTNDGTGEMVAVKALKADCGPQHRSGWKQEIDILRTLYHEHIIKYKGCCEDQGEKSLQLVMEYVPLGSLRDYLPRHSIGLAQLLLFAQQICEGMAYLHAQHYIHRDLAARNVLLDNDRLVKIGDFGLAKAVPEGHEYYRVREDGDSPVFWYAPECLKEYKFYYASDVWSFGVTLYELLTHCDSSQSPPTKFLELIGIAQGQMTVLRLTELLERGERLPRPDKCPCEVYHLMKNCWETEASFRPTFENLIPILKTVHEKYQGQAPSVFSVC
pIC50: −log10 of the molar value.

Smi	pIC50
CC(=O)Nc1cc(Nc2ccnc(C(C)(F)F)n2)c(-c2ccc(F)cn2)cn1	≥ 8.00
COCCOc1nccc(Nc2cc(NC(C)=O)ncc2-c2ccn(C)n2)n1	6.00 to 7.00
CC(=O)Nc1cc(Nc2cc(C)nc(C(C)(F)F)n2)c(OCc2cc(C)cc(C)n2)cn1	7.00 to 8.00
COc1cnc(NC(C)=O)cc1Nc1cc(-c2ccncc2)nc(C(C)(F)F)n1	7.00 to 8.00
COCCCOc1cnc(NC(C)=O)cc1Nc1cc(C)nc(C(C)(F)F)n1	7.00 to 8.00
CC(=O)Nc1cc(Nc2cc(OC3CC3)nc(C(C)(F)F)n2)c(Oc2cnn(C)c2)cn1	6.00 to 7.00
CC(=O)Nc1cc(Nc2cc(C)nc(C(C)(F)F)n2)c(-c2ncn(C)n2)cn1	6.00 to 7.00
CC(=O)Nc1cc(Nc2cccc(C(C)(F)F)n2)c(-c2cn(C)c(=O)cn2)cn1	7.00 to 8.00

src = patent US20260028365A1
